Data origin, for the record: PubChem BioAssay (NCI)

System: SK-OV-3 ovarian
protocol description: NCI-60 one-dose screen, 48 h (100 = growth as untreated, 0 = no growth, -100 = all killed)
assay setup: 10 µM unless noted
Procedure: Growth inhibition of the SK-OV-3 human tumor cell line is measured as a screen for anti-cancer activity. Cells are grown in 96 well plates and exposed to the test compound for 48 hours. Compounds are tested at a single concentration, which is 10^-5 M for most compounds. The reported endpoint is percent growth (GI% or GIPRCNT), where numbers from 0 - 100% represent growth inhibition, and numbers from -100% - 0 represent cell death. For example, a value of 40 represents 60% growth inhibition. […]
Compounds without any hit were thinned out: in the full panel of roughly 83,000, 20% have a hit.
# growth binned as bin A (below 70%), bin B (70% to below 90%), bin C (90% or more)

[[record]]
compound = "O=c1nc(-c2ccccc2)c2cc(-c3ccc(C(F)(F)F)nc3)ccc2[nH]1"
category = "bin C"

[[record]]
compound = "S=C(c1ccc2c(c1)OCO2)N1CCN(c2cccc(Cl)c2)CC1"
category = "bin A"

[[record]]
compound = "Cc1ncc(C(=O)Nc2ccc(CN3CCN(C)CC3)c(C(F)(F)F)c2)cc1C#Cc1cnc(N)c2ncccc12"
category = "bin A"

[[record]]
compound = "Oc1c(CN2CCOCC2)cc(COCc2ccccc2)c2cccnc12"
category = "bin A"

[[record]]
compound = "Cn1cc(-c2nn3cc(-c4cccs4)nc3s2)c2cc(F)ccc21"
category = "bin A"

[[record]]
compound = "CSc1nc(C)c([N+](=O)[O-])c(N)n1"
category = "bin B"

[[record]]
compound = "C#CCNC(=O)[C@]1(C)CCC[C@@]2(C)[C@H]1CC=C1C=C(C(C)C)CC[C@@H]12"
category = "bin C"

[[record]]
compound = "CC1CCN(C(=O)CCCl)c2ccccc21 (stereo not drawn)"
category = "bin C"

[[record]]
compound = "CC(C)CCN(CCC(C)C)CC(O)c1cc2c(c3ccccc13)CCCC2 (stereo not drawn)"
category = "bin B"

[[record]]
compound = "Nc1nc(N)c(N=Nc2ccccc2)c(-c2ccccc2)n1"
category = "bin A"

[[record]]
compound = "CCNc1ccc(-c2nc3ccccc3n3cccc23)cc1"
category = "bin B"

[[record]]
compound = "Cc1cccc[n+]1C1c2ccccc2-c2ccccc21"
category = "bin B"

[[record]]
compound = "Cc1ccc(CNc2c3ccccc3nc3ccccc23)cc1"
category = "bin A"

[[record]]
compound = "Cn1c2c(c3ccc(Cl)c(Cl)c31)C(C#N)C(C)(C)NC2=O (stereo not drawn)"
category = "bin C"

[[record]]
compound = "CN1CCN(c2ccc3nc4c(nc3c2C(F)(F)F)C(=O)c2ncccc2C4=O)CC1"
category = "bin A"

[[record]]
compound = "OCCNCCNC(Cc1ccc(Cl)cc1)c1ccccc1 (stereo not drawn)"
category = "bin B"

[[record]]
compound = "CCN(CC)CCCN1C(=O)c2c(c(C)c3c(oc4ccc(OC)cc43)c2C)C1=O"
category = "bin C"

[[record]]
compound = "Cc1ccc(S(=O)(=O)OCCCOS(=O)(=O)c2ccc(C)cc2)cc1"
category = "bin C"

[[record]]
compound = "Cc1ccc2c(-n3nc(C#N)c(C#N)c3N)cc(=O)[nH]c2c1"
category = "bin B"

[[record]]
compound = "N#Cc1nc(-c2ccccc2)oc1S(=O)(=O)N1CCN(c2ccc(F)cc2)CC1"
category = "bin C"

